Measurement Label: melting point

NC(=O)c1ccc(COc2ccc3c(c2)CCN(C2CCN(C4CCC4)CC2)C3=O)cc1 has a reported melting point of 292 to 293 °C

CCCC(=O)OCC(=O)C1(OC(=O)CCC)CCC2C3CC(C)C4=CC(=O)CCC4(C)C3C(O)CC21C (centres undefined) has a reported melting point of 103 °C

COc1ccc(-c2c(C(=O)O)oc3cc(OCc4ccc(OCc5ccc6ccccc6n5)cc4)cc(O)c3c2=O)cc1 has a reported melting point of 195 to 196 °C

COc1ccc(C=O)c2cccnc12 has a reported melting point of 121 to 122 °C

O=C1C(=O)c2ccc(-c3cccnc3)cc2C2=C1SCC1(CCN(C(=O)c3cccc(Cl)c3)CC1)O2 has a reported melting point of 240 to 242 °C

CCOc1ccccc1-c1cccc(-n2cnc(-c3nc(C)no3)c2)c1 has a reported melting point of 110 to 113 °C

CCCn1cc(-c2c(-c3ccccc3F)nn3ccncc23)ccc1=O has a reported melting point of 127 to 128 °C

COc1c(S(=O)(=O)N2CCC[C@H]2C(=O)O)ccc(Cl)c1COc1cccc2c(C)cc(C)nc12 has a reported melting point of 134 to 138 °C

O=C(O)CCOc1ccc2c(c1)CCO2 has a reported melting point of 131 to 132 °C
